system tested: human JAK3 (Homo sapiens)
Construct: catalytic domain (amino acids 781-1124; catalog number PV3855)
experiment: JAK3 inhibition assay
protocol conditions: recombinant human JAK3 catalytic domain; polyGT substrate
pIC50: −log10 of the molar value.
Exercise: for every item that follows, state its recorded pIC50.

Per the record, CCc1cc(-c2cnccc2Cl)ccc1N(C)c1cc2c(cn1)ncn2C [Compound 155] has pIC50 of 6.30 to 7.00

Per the record, CCc1cc(C(C#N)N2CC(F)(F)C2)ccc1N(C)c1cc2c(cn1)ncn2C (stereo not drawn) [Compound 440] has pIC50 of 6.30 to 7.00

Per the record, CCc1cc(C(C)(C)O)ccc1N(C)c1cc2c(cn1)ncn2C [Compound 103] has pIC50 of 6.30 to 7.00

Per the record, CCc1cc(CN(C)S(=O)(=O)CC)ccc1N(C)c1cc2c(cn1)ncn2C [Compound 294] has pIC50 of 7.00 to 11.00

Per the record, CCc1cc(C(C#N)N2CC(NS(C)(=O)=O)C2)ccc1N(C)c1cc2c(cn1)ncn2C (stereo not drawn) [Compound 455] has pIC50 of 7.00 to 11.00

Per the record, CN(c1cc2c(cn1)ncn2C)c1cc(C2CC2)nn1C [Compound 306] has pIC50 of < 6.00

Per the record, CN(c1ccc(O)cc1)c1cc2c(cn1)ncn2C [Compound 17] has pIC50 of < 6.00

Per the record, CCc1cc(N2CC[C@@H](F)C2)ncc1N(C)c1cc2c(cn1)ncn2C [Compound 414] has pIC50 of 6.30 to 7.00

Per the record, CCc1cc(C2CN(C(=O)COC)C2)ccc1N(C)c1cc2c(cn1)ncn2C [Compound 350] has pIC50 of < 6.00

Per the record, CCc1cc(C2=CCN(C(=O)C3(O)CC3)CC2)ccc1N(C)c1cc2c(cn1)ncn2C [Compound 229] has pIC50 of 6.30 to 7.00

Per the record, CCc1cc(C(CC#N)NS(C)(=O)=O)ccc1N(C)c1cc2c(cn1)ncn2C (stereo not drawn) [Compound 387] has pIC50 of 6.30 to 7.00

Per the record, CCc1ccccc1N(CC(F)F)c1cc2c(cn1)ncn2C [Compound 284] has pIC50 of 6.30 to 7.00

Per the record, CCc1cc(C(C#N)N2CCC2)ccc1N(C)c1cc2c(cn1)ncn2C (stereo not drawn) [Compound 394] has pIC50 of 6.30 to 7.00

Per the record, CCc1cc(C(C#N)N2CC(NC(=O)OC(C)(C)C)C2)ccc1N(C)c1cc2c(cn1)ncn2C (stereo not drawn) [Compound 436] has pIC50 of 6.30 to 7.00

Per the record, CCc1ccccc1N(CC(F)F)c1cc2c(cn1)ncn2C [Compound 463] has pIC50 of 6.30 to 7.00

Per the record, CCc1cc(CN2CC(C)(C)C2)ccc1N(C)c1cc2c(cn1)ncn2C [Compound 382] has pIC50 of < 6.00

Per the record, CCc1cc(-c2cnn(CC(=O)N(C)C)c2)ccc1N(C)c1cc2c(cn1)ncn2C [Compound 220] has pIC50 of 6.30 to 7.00

Per the record, COc1cc(N2CCOCC2)ncc1N(C)c1cc2c(cn1)ncn2C [Compound 313] has pIC50 of 6.00 to 6.30

Per the record, CCc1cc(CNC2CCNC2)ccc1N(C)c1cc2c(cn1)ncn2C (stereo not drawn) [Compound 293] has pIC50 of < 6.00

Per the record, CCc1cc(-c2cnn(CC(=O)C(C)(C)C)c2)ccc1N(C)c1cc2c(cn1)ncn2C [Compound 221] has pIC50 of < 6.00

Per the record, CCc1cc(C(=O)NCC(C)(C)O)ccc1N(C)c1cc2c(cn1)ncn2C [Compound 161] has pIC50 of < 6.00

Per the record, CCc1cc(N2CC(N)C2)ncc1N(C)c1cc2c(cn1)ncn2C [Compound 442] has pIC50 of < 6.00

Per the record, CCc1ccc(C(=O)NC(C)(C)C)cc1N(C)c1cc2c(cn1)ncn2C [Compound 123] has pIC50 of < 6.00

Per the record, COc1cc(-c2cnn(C)c2)ncc1N(C)c1cc2c(cn1)ncn2C [Compound 263] has pIC50 of < 6.00

Per the record, Cc1c(OCC#N)cccc1N(C)c1cc2c(cn1)ncn2C [Compound 64] has pIC50 of 6.30 to 7.00

Per the record, CCc1cc(C2=CCN(C(=O)N(C)CC)CC2)ccc1N(C)c1cc2c(cn1)ncn2C [Compound 206] has pIC50 of 6.30 to 7.00

Per the record, CCc1cc(C(C#N)N2CC[C@@H](OC)C2)ccc1N(C)c1cc2c(cn1)ncn2C (stereo partly drawn) [Compound 448] has pIC50 of 6.30 to 7.00

Per the record, CCc1cc(CNC(C)=O)ccc1N(C)c1cc2c(cn1)ncn2C [Compound 182] has pIC50 of 6.00 to 6.30

Per the record, CCc1cc(CNS(C)(=O)=O)c(F)cc1N(C)c1cc2c(cn1)ncn2C [Compound 325] has pIC50 of 6.30 to 7.00

Per the record, CCc1cc(CNS(=O)(=O)N(C)C)ccc1N(C)c1cc2c(cn1)ncn2C [Compound 375] has pIC50 of 6.30 to 7.00

Per the record, CCn1nc(-c2ccc(Cl)cc2)cc1N(C)c1cc2c(cn1)ncn2C [Compound 307] has pIC50 of 6.30 to 7.00

Per the record, CCc1cc(C2(COS(=O)(=O)C(F)F)CCNC2)ccc1N(C)c1cc2c(cn1)ncn2C (stereo not drawn) [Compound 398] has pIC50 of 7.00 to 11.00

Per the record, CCc1cc(C#N)cc(F)c1N(C)c1cc2c(cn1)ncn2C [Compound 322] has pIC50 of < 6.00

Per the record, CCc1cc(-c2ccc(CNC(=O)OC(C)(C)C)s2)ncc1N(C)c1cc2c(cn1)ncn2C [Compound 302] has pIC50 of < 6.00

Per the record, CCc1cc(C2CN(CC#N)C2)ncc1N(C)c1cc2c(cn1)ncn2C [Compound 331] has pIC50 of < 6.00

Per the record, CN(c1cc2c(cn1)ncn2C)c1ccccc1Cl [Compound 68] has pIC50 of < 6.00

----------
Exercise: for every item that follows, state its recorded IC50.
system tested: human JAK3 (Homo sapiens, UniProt P52333)
Construct: catalytic domain (amino acids 781-1124; catalog number PV3855)
Sequence (P52333 781-1124): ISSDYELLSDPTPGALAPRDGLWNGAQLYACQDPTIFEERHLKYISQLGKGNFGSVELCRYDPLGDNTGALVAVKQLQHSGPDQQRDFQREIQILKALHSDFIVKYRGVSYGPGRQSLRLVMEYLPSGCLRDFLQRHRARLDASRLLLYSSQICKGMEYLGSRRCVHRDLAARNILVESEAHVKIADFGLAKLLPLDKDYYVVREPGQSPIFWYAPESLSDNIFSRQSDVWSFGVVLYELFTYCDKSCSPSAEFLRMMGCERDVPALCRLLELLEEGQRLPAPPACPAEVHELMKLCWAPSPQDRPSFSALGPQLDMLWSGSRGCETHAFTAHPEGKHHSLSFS
experiment: JAK3 inhibition assay
protocol conditions: recombinant human JAK3 catalytic domain; polyGT substrate

Per the record, CCc1cc(N2CC(F)(F)C2)ncc1N(C)c1cc2c(cn1)ncn2C [Compound 413] has IC50 of 101 to 500 nM

Per the record, CN(c1cc2c(cn1)ncn2C)c1ccc(C2CN(C(=O)N3CCCCC3)C2)cc1OC(F)F [Compound 367] has IC50 of > 1000 nM

Per the record, CCOc1ccc(N(C)c2cc3c(cn2)ncn3C)c(CC)c1 [Compound 272] has IC50 of 501 to 1000 nM

Per the record, CCc1cc(C2=CCN(S(=O)(=O)C(C)C)CC2)ccc1N(C)c1cc2c(cn1)ncn2C [Compound 246] has IC50 of 0.01 to 100 nM

Per the record, Cc1cc(-c2cncnc2)ccc1N(C)c1cc2c(cn1)ncn2C [Compound 72] has IC50 of > 1000 nM

Per the record, CCc1cc(-c2cnccn2)ccc1N(C)c1cc2c(cn1)ncn2C [Compound 144] has IC50 of 501 to 1000 nM

Per the record, CN(c1cc2c(cn1)ncn2C)c1ccc(C2CN(C(=O)OC(C)(C)C)C2)cc1OC(F)F [Compound 362] has IC50 of > 1000 nM

Per the record, COc1cc(C2CCN(S(C)(=O)=O)CC2)ncc1N(C)c1cc2c(cn1)ncn2C [Compound 276] has IC50 of > 1000 nM

----------
system tested: human TYK2 (Homo sapiens)
Construct: catalytic domain (amino acids 871-1187; catalog number 08-147)
Sequence (P29597 871-1187): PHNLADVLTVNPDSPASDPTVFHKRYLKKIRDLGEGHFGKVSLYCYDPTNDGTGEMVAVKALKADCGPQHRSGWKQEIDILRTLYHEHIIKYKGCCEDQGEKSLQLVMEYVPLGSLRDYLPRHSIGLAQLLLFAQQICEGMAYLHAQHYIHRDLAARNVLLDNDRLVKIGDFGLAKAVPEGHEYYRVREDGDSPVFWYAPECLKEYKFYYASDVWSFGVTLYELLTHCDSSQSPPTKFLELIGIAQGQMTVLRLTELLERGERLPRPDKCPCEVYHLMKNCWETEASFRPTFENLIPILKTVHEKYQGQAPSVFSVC
experiment: TYK2 inhibition assay
protocol conditions: recombinant human TYK2 catalytic domain, polyGT substrate
assay metric: IC50

Per the record, CCc1cc(CNC(=O)C(F)F)ccc1N(C)c1cc2c(cn1)ncn2C [Compound 256] has IC50 of 101 to 500 nM

Per the record, CCc1cc(C(O)C(F)(F)F)ccc1N(C)c1cc2c(cn1)ncn2C (stereo not drawn) [Compound 159] has IC50 of 101 to 500 nM

Per the record, CCc1cc(-c2cn[nH]c2)ccc1N(C)c1cc2c(cn1)ncn2C [Compound 210] has IC50 of 0.01 to 100 nM

Per the record, Cc1ccc(OCc2ccccc2)cc1N(C)c1cc2c(cn1)ncn2C [Compound 56] has IC50 of > 1000 nM

Per the record, CCc1cc(C2CN(S(=O)(=O)C(F)F)C2)ncc1N(C)c1cc2c(cn1)ncn2C [Compound 329] has IC50 of > 1000 nM

Per the record, CCc1cc(C2=CCN(C(=O)NC3COC3)CC2)ccc1N(C)c1cc2c(cn1)ncn2C [Compound 215] has IC50 of 0.01 to 100 nM

Per the record, CCc1cc(OCC#N)ccc1N(C)c1cc2c(cn1)ncn2C [Compound 295] has IC50 of 0.01 to 100 nM

Per the record, COc1ccc(N(C)c2cc3c(cn2)ncn3C)cc1 [Compound 2] has IC50 of > 1000 nM

Per the record, CCc1ccccc1N(C)c1cc2c(cn1)ncn2C(F)F [Compound 431] has IC50 of > 1000 nM
